# testSystem: KRAS G13C (Homo sapiens (Human), UniProt P01116+P62937, G13C)
# Sequence (P01116 other isoform, or with tags, fused parts or gaps G13C): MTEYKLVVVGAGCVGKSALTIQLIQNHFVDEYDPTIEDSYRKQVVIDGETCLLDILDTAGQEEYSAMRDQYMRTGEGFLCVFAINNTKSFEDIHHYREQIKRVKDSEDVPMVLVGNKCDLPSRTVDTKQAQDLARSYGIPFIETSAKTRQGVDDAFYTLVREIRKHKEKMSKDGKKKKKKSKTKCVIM
# Sequence (P62937 whole entry): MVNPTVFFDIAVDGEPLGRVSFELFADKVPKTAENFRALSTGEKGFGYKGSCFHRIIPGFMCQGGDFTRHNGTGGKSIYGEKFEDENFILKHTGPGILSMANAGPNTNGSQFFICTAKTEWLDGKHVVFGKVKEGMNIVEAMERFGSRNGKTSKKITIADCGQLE
# methodDescription: Ras-Raf disruption/FRET/MOA assay (BRAF RBD, Cyclophilin A)
# Assay type: biochemical
# studyConditions: read-out: KRAS G13C FRET IC50
pIC50: −log10 of the molar value.
Some compounds, each annotated with its measured pIC50.

compound | valueType | result
CCn1c(-c2cccnc2[C@H](C)OC)c2c3cc(ccc31)-c1csc(n1)C[C@H](NC(=O)[C@H](C(C)C)N1CCC3(COC3)C1)C(=O)N1CCC[C@H](N1)C(=O)OCC(C)(C)C2 [Compound A561] | pIC50 | 6.00 to 7.00
CCn1c(-c2cccnc2[C@H](C)OC)c2c3cc(ccc31)-c1csc(n1)C[C@H](NC(=O)[C@H](C(C)C)N(C)C(=O)N1CCN(C)CC13CC3)C(=O)N1CCC[C@H](N1)C(=O)OCC(C)(C)C2 [Compound A307] | pIC50 | 5.00 to 6.00
CCn1c(-c2cccnc2[C@H](C)OC)c2c3cc(ccc31)-c1cc(O)cc(c1)C[C@H](NC(=O)[C@H](C(C)C)N(C)C(=O)[C@@]1(F)CCN(C(=O)OC)C1)C(=O)N1CCC[C@H](N1)C(=O)OCC(C)(C)C2 [Compound A615] | pIC50 | 7.00 to 8.00

Lab note: next compound to report on.
State, for KRAS G13C (Homo sapiens (Human), UniProt P01116+P62937, G13C), measured pIC50 of the compound listed here: CCn1c(-c2cccnc2[C@H](C)OC)c2c3cc(ccc31)-c1cc(O)cc(c1)C[C@H](NC(=O)[C@H](C(C)C)N(C)C(=O)[C@H]1[C@@H](N)[C@@H]3CC[C@H]1O3)C(=O)N1CCC[C@H](N1)C(=O)OCC(C)(C)C2 [Compound A421] 7.00 to 8.00

* * *

# testSystem: KRAS G12S (Homo sapiens (Human), UniProt P01116+P62937, G12S)
# Sequence (P01116 other isoform, or with tags, fused parts or gaps G12S): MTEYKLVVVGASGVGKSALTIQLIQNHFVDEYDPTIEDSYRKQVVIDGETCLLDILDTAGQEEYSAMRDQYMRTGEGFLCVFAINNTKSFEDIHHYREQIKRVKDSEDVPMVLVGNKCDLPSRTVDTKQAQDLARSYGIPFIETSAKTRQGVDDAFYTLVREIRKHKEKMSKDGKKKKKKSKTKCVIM
# Sequence (P62937 whole entry): as the sequence (P62937 whole entry) above
# methodDescription: Ras-Raf disruption/FRET/MOA assay, KRAS G12S
# Assay type: biochemical
# studyConditions: read-out: KRAS G12S FRET IC50
Some compounds, each annotated with its measured IC50.

Here is how some compounds turned out for IC50.
compound | IC50
CCn1c(-c2cnccc2COC)c2c3cc(ccc31)-c1cc(O)cc(c1)C[C@H](NC(=O)[C@H](C(C)C)N(C)C(=O)C1CCN(C(=O)[C@@H]3CN3)CC1)C(=O)N1CCC[C@H](N1)C(=O)OCC(C)(C)C2 | 100 to 1000 nM
CCn1c(-c2cccnc2[C@H](C)OC)c2c3cc(ccc31)-c1cc(O)cc(c1)C[C@H](NC(=O)[C@H](C(C)C)N1CCC3(CC(C(=O)[C@H]4CN4)C3)C1=O)C(=O)N1CCC[C@H](N1)C(=O)OCC(C)(C)C2 (stereo partly drawn) | 100 to 1000 nM

Give reported IC50 value for CCn1c(-c2cnccc2COC)c2c3cc(ccc31)-c1cc(O)cc(c1)C[C@H](NC(=O)[C@@H](CCNC1=NCCO1)C(C)C)C(=O)N1CCC[C@H](N1)C(=O)OCC(C)(C)C2 > 10000 nM

* * *

# testSystem: K-Ras G12C(GMP-PNP) binding to BRAF RBD (Homo sapiens (Human), UniProt P01116+P62937, G12C)
# Sequence (P01116 other isoform, or with tags, fused parts or gaps G12C, one chain of several): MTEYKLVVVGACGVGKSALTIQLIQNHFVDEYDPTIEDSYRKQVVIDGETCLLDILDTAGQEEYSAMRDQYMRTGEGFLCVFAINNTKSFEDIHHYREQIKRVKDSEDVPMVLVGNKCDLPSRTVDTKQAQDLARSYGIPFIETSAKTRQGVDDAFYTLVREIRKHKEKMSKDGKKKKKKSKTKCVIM
# methodDescription: Disruption of BRAF RBD interaction with K-Ras (FRET / MOA assay), K-Ras G12C
# Format: biochemical
# studyConditions: read-out: KRAS G12C FRET IC50
# Text: Note—The following protocol describes a procedure for monitoring disruption of K-Ras G12C(GMP-PNP) binding to BRAF^RBD by a compound of the invention. This protocol may also be executed substituting other Ras proteins or nucleotides. […]
Some molecules, each annotated with its measured IC50.

Here is how some molecules turned out for IC50.
molecule | IC50
CCn1c(-c2cccnc2[C@H](C)OC)c2c3cc(ccc31)-c1csc(n1)C[C@H](NC(=O)[C@H](C(C)C)N(C)C(=O)N1CCCOCC1)C(=O)N1CCC[C@H](N1)C(=O)OCC(C)(C)C2 | 100 to 1000 nM
CC[C@H](COC1CN(C(=O)C#CC(C)(C)N(C)C)C1)C(=O)N[C@H]1Cc2nc(cs2)-c2ccc3c(c2)c(c(-c2cccnc2[C@H](C)OC)n3CC)CC(C)(C)COC(=O)[C@@H]2CCCN(N2)C1=O (atropisomer, axis not shown) | < 10 nM
CCn1c(-c2cccnc2[C@H](C)OC)c2c3cc(ccc31)-c1csc(n1)C[C@H](NC(=O)[C@H](C(C)C)N(C)C(=O)N1CC([C@@H](C)CO)C1)C(=O)N1CCC[C@H](N1)C(=O)OCC(C)(C)C2 (single isomer, unassigned) | 100 to 1000 nM
CCn1c(-c2cc(N3CCN(C)CC3)cnc2[C@H](C)OC)c2c3cc(ccc31)-c1csc(n1)C[C@H](NC(=O)[C@H](C(C)C)N(C)C(=O)[C@@H]1OCC[C@@H]1c1ccccc1)C(=O)N1CCC[C@H](N1)C(=O)OCC(C)(C)C2 | 100 to 1000 nM
CCn1c(-c2cccnc2[C@H](C)OC)c2c3cc(ccc31)-c1cc(O)cc(c1)C[C@H](NC(=O)[C@H](C(C)C)N(C)C(=O)C1CC(=O)N(C3CC3)C1)C(=O)N1CCC[C@H](N1)C(=O)OCC(C)(C)C2 (some centres unmarked) | 10 to 100 nM

Give reported IC50 value for CCn1c(-c2cccnc2[C@H](C)OC)c2c3cc(ccc31)-c1csc(n1)C[C@H](NC(=O)[C@H](C(C)C)N(C)C(=O)N1CCO[C@@]3(CCN(C)C3)C1)C(=O)N1CCC[C@H](N1)C(=O)OCC(C)(C)C2 10 to 100 nM

Give reported IC50 value for C=CC(=O)N1CC[C@H](C(=O)N(C)[C@H](C(=O)N[C@H]2Cc3cccc(c3)-c3ccc4c(c3)c(c(-c3cccnc3[C@H](C)OC)n4CC)CC(C)(C)COC(=O)[C@@H]3CCCN(N3)C2=O)C(C)C)C1 > 10000 nM

Give reported IC50 value for CCn1c(-c2cccnc2[C@H](C)OC)c2c3cc(ccc31)-c1cc(O)cc(c1)C[C@H](NC(=O)[C@H](C(C)C)N(C)C(=O)C1(C(=O)O)CC1)C(=O)N1CCC[C@H](N1)C(=O)OCC(C)(C)C2 10 to 100 nM

* * *

# testSystem: K-Ras G12C(GMP-PNP) binding to BRAF RBD (Homo sapiens (Human), UniProt P01116+P62937, G12C)
# methodDescription: Disruption of BRAF RBD interaction with K-Ras (FRET / MOA assay), K-Ras G12C
# Assay type: biochemical
# studyConditions: read-out: KRAS G12C FRET IC50
Some molecules, each annotated with its measured IC50.

Here is how some molecules turned out for IC50.
molecule | IC50
C=CC(=O)N1CC[C@]2(C1)OCN([C@H](C(=O)N[C@H]1Cc3cc(cc(C(F)(F)F)c3)-c3ccc4c(c3)c(c(-c3cccnc3[C@H](C)OC)n4CC)CC(C)(C)COC(=O)[C@@H]3CCCN(N3)C1=O)C(C)C)C2=O | 100 to 1000 nM
CCn1c(-c2cccnc2[C@H](C)OC)c2c3cc(ccc31)-c1csc(n1)C[C@H](NC(=O)[C@H](C(C)C)N(C)C(=O)N1CC([C@H](C)N(C)C)C1)C(=O)N1CCC[C@H](N1)C(=O)OCC(C)(C)C2 | 10 to 100 nM

Give reported IC50 value for CCn1c(-c2cccnc2[C@H](C)OC)c2c3cc(ccc31)-c1cc(O)cc(c1)C[C@H](NC(=O)[C@H](C(C)C)N(C)C(=O)[C@H]1CCN(C(=O)[C@@]3(C)CCCN3)C1)C(=O)N1CCC[C@H](N1)C(=O)OCC(C)(C)C2 < 10 nM

Give reported IC50 value for CCn1c(-c2cc(N3CCN(C)CC3)cnc2[C@H](C)OC)c2c3cc(ccc31)-c1cc(O)cc(c1)C[C@H](NC(=O)[C@H](C(C)C)N(C)C(=O)[C@@H]1OCC[C@@H]1c1ccccc1)C(=O)N1CCC[C@H](N1)C(=O)OCC(C)(C)C2 10 to 100 nM

Give reported IC50 value for CCn1c(-c2cccnc2[C@H](C)OC)c2c3cc(ccc31)-c1cc(O)cc(c1)C[C@H](NC(=O)C(C)C1CCOCC1)C(=O)N1CCC[C@H](N1)C(=O)OCC(C)(C)C2 (some centres unmarked) > 10000 nM

* * *

# testSystem: KRAS G13D (Homo sapiens (Human), UniProt P01116+P62937, G13D)
# Sequence (P01116 other isoform, or with tags, fused parts or gaps G13D, one chain of several): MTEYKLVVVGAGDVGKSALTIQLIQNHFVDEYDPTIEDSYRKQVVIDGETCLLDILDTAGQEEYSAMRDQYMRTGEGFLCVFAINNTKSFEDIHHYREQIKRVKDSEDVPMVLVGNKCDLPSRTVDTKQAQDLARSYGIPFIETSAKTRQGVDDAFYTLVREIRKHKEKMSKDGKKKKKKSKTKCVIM
# methodDescription: Ras-Raf disruption/FRET/MOA assay (BRAF RBD, Cyclophilin A)
# Format: biochemical
# studyConditions: read-out: KRAS G13D FRET data IC50
Some compounds, each annotated with its measured IC50.

compound | IC50
CCn1c(-c2cccnc2[C@H](C)OC)c2c3cc(ccc31)-c1cc(O)cc(c1)C[C@H](NC(=O)[C@H](C(C)C)N(C)C(=O)[C@H]1CCN(C(=O)OC3CN(C)C3)C1)C(=O)N1CCC[C@H](N1)C(=O)OCC(C)(C)C2 [Compound A348] | 0.01 to 0.1 µM
CCn1c(-c2cccnc2[C@H](C)OC)c2c3cc(ccc31)-c1cc(O)cc(c1)C[C@H](NC(=O)[C@H](C(C)C)N(C)C(=O)[C@@H]1OCC[C@@H]1c1ccccc1)C(=O)N1CCC[C@H](N1)C(=O)OCC(C)(C)C2 [Compound A415] | 0.01 to 0.1 µM
CCn1c(-c2cccnc2[C@H](C)OC)c2c3cc(ccc31)-c1cc(O)cc(c1)C[C@H](NC(=O)[C@@H]1[C@@H](C)CCCN1C(C)=O)C(=O)N1CCC[C@H](N1)C(=O)OCC(C)(C)C2 [Compound A324] | 0.1 to 1 µM

Lab note: next compound to report on.
Give reported IC50 value for CCn1c(-c2cccnc2[C@H](C)OC)c2c3cc(ccc31)-c1cc(O)cc(c1)C[C@H](NC(=O)[C@H](C(C)C)N(C)C(=O)C1CN3CCCN1CC3)C(=O)N1CCC[C@H](N1)C(=O)OCC(C)(C)C2 (stereo partly shown) [Compound A404] 0.1 to 1 µM

// data source = patent US20250195521A1
